# experimental_protocol: Half life in Wistar Han rat at 1 mg/kg, iv infusion
# Assay type: ADME, organism-based
# Design: dose 1 mg/kg, route intravenous
# condition_details: in vivo
reported_property: half-life

Lookup: Given the entry `C[C@H]1[C@H](NC(=O)/C(=N\OC(C)(C)C(=O)O)c2csc(N)n2)C(=O)N1C(=O)NS(=O)(=O)N1C[C@@H](NC(=O)c2cc(=O)c(O)c[nH]2)CC1=O` , report its measured half-life.
Found: 20.4 min

Lookup: Given the entry `C[C@H]1[C@H](NC(=O)/C(=N\OC(C)(C)C(=O)O)c2csc(N)n2)C(=O)N1C(=O)NS(=O)(=O)N1CCN(C(=O)c2cc(=O)c(O)c[nH]2)N(C)C1=O` , report its measured half-life.
Found: 22.2 min

Lookup: Given the entry `C[C@H]1[C@H](NC(=O)/C(=N\OC(C)(C)C(=O)O)c2csc(N)n2)C(=O)N1C(=O)NS(=O)(=O)N1C[C@@H](NC(=O)NCc2cc(=O)c(O)cn2O)CC1=O` , report its measured half-life.
Found: 29.4 min

Lookup: Given the entry `C[C@H]1[C@H](NC(=O)/C(=N\OC(C)(C)C(=O)O)c2csc(N)n2)C(=O)N1C(=O)NS(=O)(=O)n1nc(-c2cc(=O)c(O)c[nH]2)n(C[C@@H](O)CO)c1=O` , report its measured half-life.
Found: 23.4 min

* * *

Exercise: state measured fraction unbound at 16 h, 10 µM for each of the molecules provided.
# experimental_protocol: Percentage unbound in human plasma at 10 uM after 16 hrs by LC-MS/MS analysis
// return just the number, without any unit appended

Lookup: Given the entry `C[C@H]1[C@H](NC(=O)/C(=N\OCC(=O)O)c2csc(N)n2)C(=O)N1C(=O)NS(=O)(=O)N1C[C@@H](NC(=O)NCc2cc(=O)c(O)cn2O)CC1=O` , report its measured fraction unbound at 16 h, 10 µM.
Found: 0.26

Lookup: Given the entry `C[C@H]1[C@H](NC(=O)/C(=N\OC(C)(C)C(=O)O)c2csc(N)n2)C(=O)N1C(=O)NS(=O)(=O)n1nc(-c2cc(=O)c(O)c[nH]2)n(C[C@@H](O)CO)c1=O` , report its measured fraction unbound at 16 h, 10 µM.
Found: 0.04

Lookup: Given the entry `C[C@H]1[C@H](NC(=O)/C(=N\OC(C)(C)C(=O)O)c2csc(N)n2)C(=O)N1C(=O)NS(=O)(=O)N1C[C@@H](NC(=O)[C@H](CN)NC(=O)c2cc(=O)c(O)c[nH]2)CC1=O` , report its measured fraction unbound at 16 h, 10 µM.
Found: 0.18

* * *

# experimental_protocol: Half life in PBS buffer in pH 7.4 by UPLC analysis
# Assay type: ADME
Exercise: state measured half-life for each of the compounds provided.

Lookup: Given the entry `C[C@H]1[C@H](NC(=O)/C(=N\OC(C)(C)C(=O)O)c2csc(N)n2)C(=O)N1C(=O)NS(=O)(=O)N1C[C@@H](NC(=O)CNC(=O)c2cc(=O)c(O)c[nH]2)CC1=O` , report its measured half-life.
Found: > 150 h

Lookup: Given the entry `C[C@H]1[C@H](NC(=O)/C(=N\OC(C)(C)C(=O)O)c2csc(N)n2)C(=O)N1C(=O)NS(=O)(=O)N1C[C@@H](NC(=O)N(C)Cc2cc(=O)c(O)cn2O)CC1=O` , report its measured half-life.
Found: > 150 h

Lookup: Given the entry `C[C@H]1[C@H](NC(=O)/C(=N\OC(C)(C)C(=O)O)c2csc(N)n2)C(=O)N1C(=O)NS(=O)(=O)N1CCN(C(=O)c2cc(=O)c(O)c[nH]2)N(C)C1=O` , report its measured half-life.
Found: 38 h

* * *

# experimental_protocol: Half life in PBS buffer in pH 7.4 by UPLC analysis
# Assay type: ADME
reported_property: half-life (days)
Lab book: enter the figure in days, no units written.

Lookup: Given the entry `C[C@H]1[C@H](NC(=O)/C(=N\OC(C)(C)C(=O)O)c2csc(N)n2)C(=O)N1C(=O)NS(=O)(=O)N1C[C@@H](NC(=O)NCc2cc(=O)c(O)cn2O)CC1=O` , report its measured half-life.
Found: 3.62

Lookup: Given the entry `C[C@H]1[C@H](NC(=O)/C(=N\OC(C)(C)C(=O)O)c2csc(N)n2)C(=O)N1C(=O)NS(=O)(=O)N1C[C@@H](NC(=O)[C@H](CN)NC(=O)c2cc(=O)c(O)c[nH]2)CC1=O` , report its measured half-life.
Found: 2.12

Lookup: Given the entry `C[C@H]1[C@H](NC(=O)/C(=N\OC(C)(C)C(=O)O)c2csc(N)n2)C(=O)N1C(=O)NS(=O)(=O)N1C[C@@H](NC(=O)[C@@H]2CCCN2C(=O)c2cc(=O)c(O)c[nH]2)CC1=O` , report its measured half-life.
Found: 4.75

Lookup: Given the entry CC(C)(O/N=C(\C(=O)NC1CN(C(=O)NS(=O)(=O)N2CCN(NC(=O)c3cc(=O)c(O)c[nH]3)C2=O)C1=O)c1csc(N)n1)C(=O)O (stereo not drawn) , report its measured half-life.
Found: 1.71

Lookup: Given the entry `C[C@H]1[C@H](NC(=O)/C(=N\OC(C)(C)C(=O)O)c2csc(N)n2)C(=O)N1C(=O)NS(=O)(=O)N1N=C(c2cc(=O)c(O)c[nH]2)NCC1=O` , report its measured half-life.
Found: 1.67

Lookup: Given the entry `C[C@H]1[C@H](NC(=O)/C(=N\OCC(=O)O)c2csc(N)n2)C(=O)N1C(=O)NS(=O)(=O)N1C[C@@H](NC(=O)NCc2cc(=O)c(O)cn2O)CC1=O` , report its measured half-life.
Found: 3.62

Lookup: Given the entry `C[C@H]1[C@H](NC(=O)/C(=N\OC(C)(C)C(=O)O)c2csc(N)n2)C(=O)N1C(=O)NS(=O)(=O)Nc1cc(=O)c(O)c[nH]1` , report its measured half-life.
Found: 4.29

Lookup: Given the entry `C[C@H]1[C@H](NC(=O)/C(=N\OC(C)(C)C(=O)O)c2csc(N)n2)C(=O)N1C(=O)NS(=O)(=O)n1nc(-c2cc(=O)c(O)c[nH]2)n(C[C@@H](O)CO)c1=O` , report its measured half-life.
Found: 5.75

Lookup: Given the entry `C[C@H]1[C@H](NC(=O)/C(=N\OC(C)(C)C(=O)O)c2csc(N)n2)C(=O)N1C(=O)NS(=O)(=O)N1C[C@@H](NCc2cc(=O)c(O)c[nH]2)CC1=O` , report its measured half-life.
Found: 2

Lookup: Given the entry `C[C@H]1[C@H](NC(=O)/C(=N\OC(C)(C)C(=O)O)c2csc(N)n2)C(=O)N1C(=O)NS(=O)(=O)N1C[C@@H](N(C)C(=O)NCc2cc(=O)c(O)cn2O)CC1=O` , report its measured half-life.
Found: 0.792

Lookup: Given the entry `C[C@H]1[C@H](NC(=O)/C(=N\OC(C)(C)C(=O)O)c2csc(N)n2)C(=O)N1C(=O)NS(=O)(=O)N1C[C@@H](NC(=O)NCc2cc(=O)c(O)c[nH]2)CC1=O` , report its measured half-life.
Found: 1.25

Lookup: Given the entry `C[C@H]1[C@H](NC(=O)/C(=N\OC(C)(C)C(=O)O)c2csc(N)n2)C(=O)N1C(=O)NS(=O)(=O)N1C[C@@H](n2cc(-c3cc(=O)c(O)c[nH]3)nn2)CC1=O` , report its measured half-life.
Found: 4.88

* * *

Exercise: state measured clearance for each of the compounds provided.
# experimental_protocol: Clearance in Wistar Han rat at 1 mg/kg, iv infusion
# Format: ADME, organism-based
# Parameters: dose 1 mg/kg, route intravenous
# condition_details: in vivo
Lab book: enter the figure in mL/min/kg, no units written.

Lookup: Given the entry `C[C@H]1[C@H](NC(=O)/C(=N\OC(C)(C)C(=O)O)c2csc(N)n2)C(=O)N1C(=O)NS(=O)(=O)N1CCN(C(=O)c2cc(=O)c(O)c[nH]2)N(C)C1=O` , report its measured clearance.
Found: 12

Lookup: Given the entry `C[C@H]1[C@H](NC(=O)/C(=N\OC(C)(C)C(=O)O)c2csc(N)n2)C(=O)N1C(=O)NS(=O)(=O)n1nc(-c2cc(=O)c(O)c[nH]2)n(C[C@@H](O)CO)c1=O` , report its measured clearance.
Found: 9

Lookup: Given the entry `C[C@H]1[C@H](NC(=O)/C(=N\OC(C)(C)C(=O)O)c2csc(N)n2)C(=O)N1C(=O)NS(=O)(=O)N1C[C@@H](NC(=O)c2cc(=O)c(O)c[nH]2)CC1=O` , report its measured clearance.
Found: 16

Lookup: Given the entry `C[C@H]1[C@H](NC(=O)/C(=N\OC(C)(C)C(=O)O)c2csc(N)n2)C(=O)N1C(=O)NS(=O)(=O)N1C[C@@H](NC(=O)NCc2cc(=O)c(O)cn2O)CC1=O` , report its measured clearance.
Found: 9

* * *

# Test system: Pseudomonas aeruginosa
# experimental_protocol: Inhibition of Pseudomonas aeruginosa PBP3 acylation activity by BOCILLIN FL-based assay
reported_property: Kinact (×10⁴ /M/s)
Lab book: enter the figure in ×10⁴ /M/s, no units written.

Lookup: Given the entry `C[C@H]1[C@H](NC(=O)/C(=N\OC(C)(C)C(=O)O)c2csc(N)n2)C(=O)N1C(=O)NS(=O)(=O)N1C[C@@H](NC(=O)N(C)Cc2cc(=O)c(O)cn2O)CC1=O` , report its measured Kinact.
Found: 1.9

Lookup: Given the entry `C[C@H]1[C@H](NC(=O)/C(=N\OC(C)(C)C(=O)O)c2csc(N)n2)C(=O)N1C(=O)NS(=O)(=O)n1nc(-c2cc(=O)c(O)c[nH]2)n(C[C@@H](O)CO)c1=O` , report its measured Kinact.
Found: 7.2

meta.source: ChEMBL document CHEMBL3407427
